- TARGET SYSTEM: Human CB1 Receptor-1b (hCB1b) (Homo sapiens (Human), UniProt P21554)
- Sequence (P21554 other isoform, or with tags, fused parts or gaps): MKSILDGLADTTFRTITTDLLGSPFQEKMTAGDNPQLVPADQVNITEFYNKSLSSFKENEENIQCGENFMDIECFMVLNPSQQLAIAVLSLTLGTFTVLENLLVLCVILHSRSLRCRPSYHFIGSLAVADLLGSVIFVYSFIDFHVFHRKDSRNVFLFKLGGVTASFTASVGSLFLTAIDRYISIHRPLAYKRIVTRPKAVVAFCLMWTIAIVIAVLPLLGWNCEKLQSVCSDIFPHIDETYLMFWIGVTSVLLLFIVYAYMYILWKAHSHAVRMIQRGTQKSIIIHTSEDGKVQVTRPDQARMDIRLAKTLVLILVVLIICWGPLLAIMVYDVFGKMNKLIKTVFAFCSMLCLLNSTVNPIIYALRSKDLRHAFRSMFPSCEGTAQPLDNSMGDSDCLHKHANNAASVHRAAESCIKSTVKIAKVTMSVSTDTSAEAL
- ASSAY TEXT: hCB1b Gai cyclic AMP (cAMP) TR-FRET assay, antagonism of EC80 CP55940 with forskolin
- MEASUREMENT CONTEXT: hCB1b cells, 30 min pre-incubation, read-out: CB1b IC50
- Method: Example 3. Biochemical Methods Human CB1 Receptor-1 (hCB1) and Human CB1 Receptor-1b (hCBib) hCB1/hCB1 b Gai Cyclic AMP (cAMP) Assays: Cells were seeded in a 384-well plate at an appropriate density from frozen cells. […] The plate was then incubated at rt for 30 minutes before reading fluorescent emissions at 620 nm and 665 with excitation at 314 nm on FlexStation III (Molecular Devices). […]
MEASURED METRIC: IC50

[
  {
    "COMPOUND": "C[C@@H](CS(N)(=O)=O)N/C(=N\\S(=O)(=O)c1ccc(Cl)cc1)N1CC(c2ccccc2)C(c2ccc(Cl)cc2)=N1 (stereo in doubt) [Compound 1]",
    "ENDPOINT RESULT": "< 100 nM"
  },
  {
    "COMPOUND": "CN1CCN(S(=O)(=O)CCN/C(=N\\S(=O)(=O)c2ccc(Cl)cc2)N2C[C@H](c3ccccc3)C(c3ccc(Cl)cc3)=N2)CC1 [Compound 157]",
    "ENDPOINT RESULT": "100 to 500 nM"
  },
  {
    "COMPOUND": "C[C@@H](CS(N)(=O)=O)N/C(=N\\S(=O)(=O)c1ccc(C(F)(F)F)cc1)N1C[C@@H](c2ccccc2)C(c2ccc(Cl)cc2)=N1 [Compound 26]",
    "ENDPOINT RESULT": "100 to 500 nM"
  },
  {
    "COMPOUND": "NS(=O)(=O)[C@H]1CC[C@H](N/C(=N/S(=O)(=O)c2ccc(Cl)cc2)N2C[C@H](c3ccccc3)C(c3ccc(F)cc3)=N2)C1 [Compound 151]",
    "ENDPOINT RESULT": "< 100 nM"
  },
  {
    "COMPOUND": "NS(=O)(=O)[C@H]1C[C@@H](N/C(=N/S(=O)(=O)c2ccc(Cl)cc2)N2C[C@H](c3ccccc3)C(c3ccc(F)cc3)=N2)C1 (single isomer, unassigned) [Compound 129]",
    "ENDPOINT RESULT": "> 500 nM"
  },
  {
    "COMPOUND": "CN(C)S(=O)(=O)CCN/C(=N\\S(=O)(=O)c1ccc(Cl)cc1)N1C[C@H](c2ccccc2)C(c2ccc(Cl)cc2)=N1 [Compound 155]",
    "ENDPOINT RESULT": "< 100 nM"
  }
]
